- System: SW-620 colon
- procedure summary: NCI-60 one-dose screen, 48 h (100 = growth as untreated, 0 = no growth, -100 = all killed)
- assay setup: 10 µM
- Procedure: Growth inhibition of the SW-620 human tumor cell line is measured as a screen for anti-cancer activity. Cells are grown in 96 well plates and exposed to the test compound for 48 hours. Compounds are tested at a single concentration, which is 10^-5 M for most compounds. The reported endpoint is percent growth (GI% or GIPRCNT), where numbers from 0 - 100% represent growth inhibition, and numbers from -100% - 0 represent cell death. For example, a value of 40 represents 60% growth inhibition. […]
This is part of a sample that, as a whole, favours compounds with a hit. Of some 83,000 tested, about 20% had one in any assay.
measured quantity: growth (%)
// return numeric value only (unit: %, not printed)

compound: CCCCCC(CCC)COC(=O)c1ccc(OC)cc1 (centres undefined)
value units: %
quantitative readout: 104

compound: C[C@@H]1N=C(c2ccc(Br)cc2)Nc2nc3ccccn3c2C1=O
value units: %
quantitative readout: 38

compound: NC1CCC(Nc2nc(NCc3ccc(-c4ccco4)nc3)c3ncn(C4CCCC4)c3n2)CC1 (centres undefined)
value units: %
quantitative readout: 7.93

compound: O=C(N/N=C/c1ccccc1O)c1ccccc1
value units: %
quantitative readout: 42.2

compound: O=C(Nc1cccc(C(F)(F)F)c1)C(Cl)Cl
value units: %
quantitative readout: 104

Annotate the compound CC(=O)Nc1nc(C)c(C(=O)N/N=C/c2cccn2C)s1 with its measured growth.
102

Identify the reported growth for the following entry. CCc1c(C)[nH]c(=O)c(C(N)=O)c1C#N
97.7

Answer with the recorded growth for the compound listed here: COc1ccc(-c2nnc(SC/C(=N\O)c3ccccc3)o2)cc1
103

Look up and state reported growth for CCOC(=O)c1cc2c(n1Cc1cccc(OC)c1)-c1oncc1CC2
23

----------
- Tested on: SK-MEL-5 melanoma
- procedure summary: NCI-60 one-dose screen, 48 h
- assay setup: 10 µM
Compounds without any hit were thinned out: in the full panel of roughly 83,000, 20% have a hit. Calls of active or inactive are those of the source. How the source made its calls: active means growth percent below 10; inactive means the rest.
API: response.call in t for active, f for inactive

compound: COc1ccc(-c2nnc(COc3ccc(NC(=O)Nc4ccccc4)cc3F)o2)cc1
class: f
//
compound: NC(=O)C1CCCN(Cc2c[nH]c3ccccc23)C1 (stereo unspecified)
class: f
//
compound: c1ccc(OCCC[P+](c2ccccc2)(c2ccccc2)c2ccccc2)cc1
class: t

Each compound tested received a call. Report the one for CC(=O)Nc1nc(C)c(C(=O)NNC=O)s1 .
f

Test call, this compound: Cn1c([N+](=O)[O-])cnc1C=C1C(=O)c2ccccc2C1=O
f

----------
Some compounds, each annotated with its measured growth.
- Tested on: PC-3 prostate
- procedure summary: NCI-60 one-dose screen, 48 h (100 = growth as untreated, 0 = no growth, -100 = all killed)
- assay setup: 10 µM
This is part of a sample that, as a whole, favours compounds with a hit. Of some 83,000 tested, about 20% had one in any assay.
Write down the numeric answer in % and omit the unit.

Sample records with growth:
compound: COc1ccc(C(=O)/C=C/c2cc(-c3ccc(OC)c(OC)c3)n[nH]2)cc1OC
measured quantity: growth
quantitative readout: -36.2

compound: Cc1noc(C)c1-c1ccc2nc(NC(=O)[C@H]3CCN(C#N)C3)cn2c1
measured quantity: growth
quantitative readout: 91.7

compound: C=CCc1cc(Nc2c3ccc(Cl)cc3nc3ccc(OC)cc23)cc(CN(CC)CC)c1O
measured quantity: growth
quantitative readout: 9.79

compound: COc1cc(Cn2c(-c3ccccc3)c(Cl)c3c2-c2oncc2CC3)cc(OC)c1
measured quantity: growth
quantitative readout: 60.8

compound: Cc1cc2cc3c(=O)[nH]c(=O)cc-3n(CC(O)C(O)C(O)CO)c2cc1C (stereo not given)
measured quantity: growth
quantitative readout: 99.9

compound: c1ccc(OCCC[P+](c2ccccc2)(c2ccccc2)c2ccccc2)cc1
measured quantity: growth
quantitative readout: -0.485

compound: CCCN(CCC)CCCNC(=O)c1cc2c(-c3ccc(OC)c(OC)c3)nn(C)c2s1
measured quantity: growth
quantitative readout: 16.1

compound: CCCCCCCCCCCC(c1ccccc1)N(C)C (stereo not given)
measured quantity: growth
quantitative readout: 78.1

compound: CCCCCCCCCCCCCCCCCBr
measured quantity: growth
quantitative readout: 92.6

Please turn your attention to the following entry.
Read off the recorded growth for COc1ccc(NC(=O)CCn2cnc3c(cc(-c4ccccc4)n3-c3ccccc3)c2=O)cc1
86.6
